FYI, the data here is from patent US20230074436A1.

Property: Kd; scope: individual binders
- assaySystem: human alpha-synuclein monomer (human, UniProt P37840 1-140)
- protocolSummary: SPR (Biacore 8K), IgG captured on anti-human Fc, aSyn monomer injected
Just the number in nM, nothing appended.

See these solved cases before continuing.
IN: Return Kd (reported value) for this binder: HC6_LC_k3_5 (antibody, V domains shown) VH: EVQLVESGGGLVQPGGSLRLSCAASGFTFSNAAMYWVRQAPGKGLELVSRIRTKPNNYATYHADSVKGRFTISRDDSKNTLYLQMNSLRAEDTAVYYCTADMATGDYWGQGTLVTVSS VL: EIVMTQSPATLSLSPGERATLSCKASQNINKQLDWYQQKPGQAPRPLIYSTNNLKTGIPARFSGSGSGTDFTLTISSLQPEDFAVYYCYQYKSAWTFGQGTKVEIK
OUT: 0.21

IN: Input 20H4_HC5_LC_k3_2_v2 (antibody, V domains shown) VH: EVQLVESGGGLVQPGGSLRLSCAASGFTFSNAAMYWVRQAPGKGLELLARIRTKPNNYATYHADSVKGRFTISRDDSKNTVYLQMNSLRAEDTAVYYCTADMATGDYWGQGTLVTVSS VL: EIVMTQSPATLSLSPGERATLSCKASQNINKNLDWYQQKPGQAPRPLIYSTNNLQTGIPARFSGSGSGTDFTLTISSLQPEDFAVYYCYQYKSAWTFGQGTKVEIK , output reported Kd.
OUT: 1.3

Switching to the query record.
IN: Quickly give me recorded Kd for HC6_LC_k3_3 (antibody, V domains shown) VH: EVQLVESGGGLVQPGGSLRLSCAASGFTFSNAAMYWVRQAPGKGLELVSRIRTKPNNYATYHADSVKGRFTISRDDSKNTLYLQMNSLRAEDTAVYYCTADMATGDYWGQGTLVTVSS VL: EIVMTQSPATLSLSPGERATLSCKASQNINQNLDWYQQKPGQAPRPLIYSTNNLKTGIPARFSGSGSGTDFTLTISSLQPEDFAVYYCYQYKSAWTFGQGTKVEIK
OUT: 0.16
